Entry source: PubChem BioAssay (NCI)

Please provide measured growth for the entries that follow.
# System: LOX IMVI melanoma
# assay-comment: NCI-60 one-dose screen, 48 h (100 = growth as untreated, 0 = no growth, -100 = all killed)
# assay-setup: 10 µM unless noted
This is part of a sample that, as a whole, favours compounds with a hit. Of some 83,000 tested, about 20% had one in any assay.
Give bare numbers, in %.

Observe how each entry below is paired with its result.
> print(dat)
                                   compound  test.value
1  Nc1ccccc1NC(=O)c1ccc(NC(=O)C/C=C/c2cccnc2)cn1        1.78
2  CC1(C)CC[C@]2(CN)CC[C@]3(C)C(=CC[C@@H]4[C@@]5(C)CCCNC(C)(C)[C@@H]5CC[C@]43C)[C@H]2C1        81.9

# batch: return growth for each of the 7 compounds below
1. COC(=O)c1[nH]nc2c1C1(C(=O)N(C)c3ccccc31)C(C#N)=C(N)O2 (centres undefined)
2. CCNC(=O)N1CCc2cc(OC)c(OCCc3ccc(OC)nc3)cc2C1c1ccc(C)cc1C (centres undefined)
3. COc1ccc(CCOc2cc3c(cc2OC)CCN(C(=O)NCc2cocn2)C3c2ccc(C)cc2C)cc1 (centres undefined)
4. Cn1ccnc1C(=O)/C=C/C=C/c1ccc(C(=O)Nc2ccc(F)cc2)cc1
5. COC(=O)C(Cc1ccccc1)Nc1nc(NC(Cc2ccccc2)C(=O)OC)nc(N2CCOCC2)n1 (centres undefined)
6. N=c1c2cc(-c3ccccc3)oc2ncn1/N=C/c1ccc(Br)cc1
7. CN(C)CCCOc1ccc2c(c1)CN(C(=O)c1cc(C(=O)N3Cc4cccc(F)c4C3)ccc1O)C2

97
3.95
1.85
-65.7
105
45.3
91.8

###

# Tested on: SF-295 CNS
# assay-comment: NCI-60 one-dose screen, 48 h
# assay-setup: 10 µM unless noted
# Description: Cells are grown in 96 well plates and exposed to the test compound for 48 hours. Compounds are tested at a single concentration, which is 10^-5 M for most compounds. The reported endpoint is percent growth (GI% or GIPRCNT), where numbers from 0 - 100% represent growth inhibition, and numbers from -100% - 0 represent cell death. For example, a value of 40 represents 60% growth inhibition. A value of 0 means no net growth occurred over the course of the experiment. […]
The panel holds about 83,000 compounds, 20% with a hit somewhere; the sample as a whole holds those more often. Active and inactive are the calls of the source. Rule for the calls: active = growth percent below 10; inactive = the rest.
Use one of these outcomes when replying: active, inactive

Answered examples (2):
> print(dat)
                                smiles.code  class.label
1      Cc1ccc(C2=Nn3c(nnc3-c3ccccc3)SC2)cc1     inactive
2  CC(=O)c1ccc(Nc2nc(SCC(C)C)nc(-c3ccccc3)c2C#N)cc1     inactive

Can you look up the reported call for COc1cc(Nc2c(C#N)cnn3cc(-c4cnn(CC(C)(C)O)c4)cc23)ccc1Cl for me?
inactive

Can you look up the reported call for C#C[C@]1(O)CC[C@H]2[C@@H]3CC=C4c5sc(-c6ccc7c(c6)OCO7)nc5CC[C@]4(C)[C@H]3CC[C@@]21C for me?
active

Can you look up the reported call for COC(=O)c1ccc(NC2=C/C(=N/S(=O)(=O)c3ccc(C(=O)O)cc3)c3ccccc3C2=O)cc1 for me?
inactive

###

# System: A498 renal
# assay-comment: NCI-60 one-dose screen, 48 h
# assay-setup: 10 µM unless noted
The panel holds about 83,000 compounds, 20% with a hit somewhere; the sample as a whole holds those more often. Active and inactive are the calls of the source. The calls were made as follows: active = growth percent below 10; inactive = the rest.
Use one of these outcomes when replying: 1.0 for active, 0.0 for inactive

> print(dat)
                                   molecule  class.label
1  NS(=O)(=O)c1ccc(Nc2nc(Nc3ccccc3)nc3nnc(SCC(=O)NC4CCCCC4)n23)cc1          0.0
2  CN1CCN(Cc2ccc(NC(=O)c3cncc(C#Cc4cnc5ccc(OCC6(C)COC6)nn45)c3)cc2C(F)(F)F)CC1          1.0
3  CCN1CCN(C(=O)[C@]23CCC(C)(C)C[C@H]2C2=CC[C@@H]4[C@@]5(C)Cc6c([nH]c7ccccc67)C(C)(C)[C@@H]5CC[C@@]4(C)[C@]2(C)CC3)CC1          0.0
4  O=S(=O)(NCCCNc1nccc(-c2[nH]c(-c3ccccc3)nc2-c2ccc(Cl)c(O)c2)n1)c1ccc(Br)cc1          0.0
5  O=S(=O)(NCCCNc1nccc(-c2[nH]c(-c3ccccc3)nc2-c2ccc(Cl)c(O)c2)n1)c1cccc(F)c1          0.0

Can you look up the reported call for NS(=O)(=O)c1ccc(Nc2cc(-c3ccccc3)nc(SCC(=O)c3ccccc3)n2)cc1 for me?
0.0

Can you look up the reported call for COc1cc(C2N=C(NNc3ccccc3)NC(C)=C2C(C)=O)ccc1O (stereo not drawn) for me?
0.0

Can you look up the reported call for COc1cc2nc(Cl)nc(Nc3cccc(C4=Nc5c(N)nc(N)nc5NC(c5ccc6c(c5)OCO6)C4)c3)c2cc1OC (stereo not drawn) for me?
0.0

###

# Tested on: MDA-MB-435 melanoma
# assay-comment: NCI-60 one-dose screen, 48 h (100 = growth as untreated, 0 = no growth, -100 = all killed)
# assay-setup: 10 µM unless noted
Compounds without any hit were thinned out: in the full panel of roughly 83,000, 20% have a hit.
Please provide measured growth for the entries that follow.
Give bare numbers, in %.

Observe how each entry below is paired with its result.
molecule	target-of-assay	growth, %
CCNC(=O)N1CCc2cc(OC)c(OCCc3ccc(OC)nc3)cc2C1c1ccc(OC)cc1C (centres undefined)	MDA-MB-435 melanoma	15
NC(N)=Nc1ccc(Oc2cccc(NC(N)=Nc3ccc(I)cc3F)c2)cn1	MDA-MB-435 melanoma	68.3
Nc1nc(N)c2c(n1)NC(c1ccc(Cl)cc1)CC(c1ccc(Nc3nc(NCCO)nc(N4CCOCC4)n3)cc1)=N2 (centres undefined)	MDA-MB-435 melanoma	81.7

# batch: return growth for each of the 4 molecules below
1. CN1CCN(Cc2ccc(NC(=O)c3cncc(C#Cc4cnn5cccnc45)c3)cc2C(F)(F)F)CC1
2. COc1cc2c(cc1OC)C(Sc1ccc(F)cc1)c1c(nc(N)c(C#N)c1N)O2 (centres undefined)
3. COc1ccc([C@@H]2[C@@H](O)C(=O)N2c2cc(OC)c(OC)c(OC)c2)cc1F
4. CC1(C)[C@@H](O)CC[C@]2(C)[C@H]3CC[C@@H]4[C@H]5[C@H](C(=O)/C=C\c6ccc([N+](=O)[O-])cc6)CC[C@]5(O)CC[C@@]4(C)[C@]3(C)CC[C@@H]12

1: 3.16; 2: -52.9; 3: -12; 4: 36.1

# batch: return growth for each of the 2 molecules below
1. N#Cc1cccc(NC(=O)c2cc(-c3ccc(F)cc3F)ccc2O)c1
2. Cc1ccc(NC(=O)CNc2cc(C(N)=O)cc(F)c2C)c(Cl)c1

[2.73, 97.4]

###

Please provide measured growth for the entries that follow.
# System: MDA-MB-435 melanoma
# assay-comment: NCI-60 one-dose screen, 48 h (100 = growth as untreated, 0 = no growth, -100 = all killed)
# assay-setup: 10 µM unless noted
The panel holds about 83,000 compounds, 20% with a hit somewhere; the sample as a whole holds those more often.
Answers are plain numbers, in %.

Observe how each entry below is paired with its result.
> print(dat)
                                   compound      target.of.assay  reading.unit  test.value
1  O=C(O)c1cn(C2CC2)c2cc(N3CCN(C(=O)CN4C(=O)CSC4=O)CC3)c(F)cc2c1=O  MDA-MB-435 melanoma             %        98.6
2  CC(C)(O)c1cncc(-c2ccc3ncnc(NCc4ccccc4)c3c2)c1  MDA-MB-435 melanoma             %        92.3
3  CCCn1cnc2c(c1=N)C(c1ccc(F)cc1)c1sc3c(CC)cccc3c1O2 (centres undefined)  MDA-MB-435 melanoma             %       -25.2
4  COc1cc(OC)c(/C=C/S(=O)(=O)Cc2ccc(OC)c(NCC(=O)NO)c2)c(OC)c1  MDA-MB-435 melanoma             %       -8.04
5  CCNC(=O)N1CCc2cc(OC)c(OCCc3ccc(OC)c(N)c3)cc2C1c1ccc(C)cc1C (centres undefined)  MDA-MB-435 melanoma             %        13.4
6  O=C(Cn1c(-c2ccccc2)nc2cc(Cl)c(Cl)cc21)N=Nc1c(O)[nH]c2ccc(Cl)cc12  MDA-MB-435 melanoma             %        83.2

# batch: return growth for each of the 4 compounds below
1. N#Cc1ccccc1Cn1c2nc(=N)c3ccccc3c-2nc2ccccc21
2. NC(N)=Nc1ccc(Oc2cccc(Nc3cccc(C(F)(F)F)c3)c2)cn1
3. CCOC(=O)c1c(Nc2ccccc2)nn2c(-c3ccccc3)ccnc12
4. COc1ccc([C@H]2c3[nH]c4ccccc4c3C[C@H]3C(=O)N(C4CCN(Cc5c(Cl)cccc5Cl)CC4)CC(=O)N23)c(OC)c1

1. 70
2. -20.6
3. 96.1
4. 102

# batch: return growth for each of the 4 compounds below
1. CC1(C)CC[C@]23CC[C@]4(C)[C@H](CC[C@@H]5[C@@]6(C)CCCN(CO)C(C)(C)[C@@H]6CC[C@]54C)[C@H]2[C@H]1OC3
2. CCCCc1nc(/C=N/Nc2nc(Nc3ccccc3)nc(Nc3ccc(S(N)(=O)=O)cc3)n2)c(Cl)[nH]1
3. O=C1/C(=C/C=C/c2ccco2)SC(=S)N1c1ccccc1
4. COc1ccc(-c2cc(-c3ccc(Cl)cc3)c(C#N)c(=O)n2Cc2ccc(C(=O)O)cc2)cc1

1. 88.7
2. 90.3
3. 89.1
4. 21.1

# batch: return growth for each of the 5 compounds below
1. CCOc1cccc(-c2nc3sccn3c2-c2ccnc(S(C)(=O)=O)n2)c1
2. COC(=O)c1ccc(NC2=C/C(=N/S(=O)(=O)c3ccc(C(=O)O)cc3)c3ccccc3C2=O)cc1
3. ClC(Cl)c1nc(-c2ccco2)n2nc(-c3ccccc3)cc2n1
4. O=S(=O)(Nc1ccc2c(c1)OCO2)c1ccc(-c2cnc(C3CC3)o2)cc1
5. Nc1cc(F)ccc1NC(=O)c1ccc(NC(=O)C/C=C/c2cccnc2)cc1

[95, -93.1, 24.9, 0.417, 28]
